// values below are reported Gastrolesive activity UD3
- System: gastric mucosa
- assay-explanation: Gastrolesive activity (macroscopic control of the gastric mucosa)
- Type: in vivo, Crl: CD(SD) male rats
- test-context: oral route; dose expected to give gastric lesion of total extension of 3 mm, 7 hours after administration; exp. session I and II (r4-r7)
measured-parameter: Gastrolesive activity UD3

given_smiles=CN1C(C(=O)Nc2nccs2)=C(OC(=O)C(C)(C)C)c2ccccc2S1(=O)=O observed="121.2 µmol/kg"
given_smiles=CCCC(=O)OC1=C(C(=O)Nc2ccccn2)N(C)S(=O)(=O)c2ccccc21 observed="23.9 µmol/kg"
given_smiles=CCCCC(=O)OC1=C(C(=O)Nc2ccccn2)N(C)S(=O)(=O)c2ccccc21 observed="28.2 µmol/kg"
given_smiles=CN1C(C(=O)Nc2ccccn2)=C(OC(=O)C(C)(C)C)c2ccccc2S1(=O)=O observed="97.2 µmol/kg"

----------
- assay-explanation: Acute toxicity by single oral administration
- Type: in vivo
- test-context: mouse, in vivo, po
// values below are reported LD50
measured-parameter: LD50 (mg/kg)

given_smiles=CCCC(=O)OC1=C(C(=O)Nc2ccccn2)N(C)S(=O)(=O)c2ccccc21 measured_parameter=LD50 observed=880
given_smiles=CCCCC(=O)OC1=C(C(=O)Nc2ccccn2)N(C)S(=O)(=O)c2ccccc21 measured_parameter=LD50 observed=1100

----------
- assay-explanation: Acute toxicity by single oral administration
- Type: in vivo
- test-context: mouse, in vivo; single administration, oral route, fasting male mice, suspended in 1% carboxymethylcellulose; interpolation on Probit paper; read-out: Approx. LD50
// values below are reported LD50
measured-parameter: LD50

compound="CN1C(C(=O)Nc2nccs2)=C(OC(=O)C(C)(C)C)c2ccccc2S1(=O)=O [CHF 1047]" observed="> 3000 mg/kg"
compound="CN1C(C(=O)Nc2ccccn2)=C(O)c2ccccc2S1(=O)=O [piroxicam, reference compound]" observed="345 mg/kg"
compound="CN1C(C(=O)Nc2ccccn2)=C(OC(=O)C(C)(C)C)c2ccccc2S1(=O)=O [CHF 1021]" observed="1800 mg/kg"
